Taken from paper PMC5371818.

# target.under.test: T1, His-FOXM1 full-length (UniProt Q08050 1-763)
# T1 sequence: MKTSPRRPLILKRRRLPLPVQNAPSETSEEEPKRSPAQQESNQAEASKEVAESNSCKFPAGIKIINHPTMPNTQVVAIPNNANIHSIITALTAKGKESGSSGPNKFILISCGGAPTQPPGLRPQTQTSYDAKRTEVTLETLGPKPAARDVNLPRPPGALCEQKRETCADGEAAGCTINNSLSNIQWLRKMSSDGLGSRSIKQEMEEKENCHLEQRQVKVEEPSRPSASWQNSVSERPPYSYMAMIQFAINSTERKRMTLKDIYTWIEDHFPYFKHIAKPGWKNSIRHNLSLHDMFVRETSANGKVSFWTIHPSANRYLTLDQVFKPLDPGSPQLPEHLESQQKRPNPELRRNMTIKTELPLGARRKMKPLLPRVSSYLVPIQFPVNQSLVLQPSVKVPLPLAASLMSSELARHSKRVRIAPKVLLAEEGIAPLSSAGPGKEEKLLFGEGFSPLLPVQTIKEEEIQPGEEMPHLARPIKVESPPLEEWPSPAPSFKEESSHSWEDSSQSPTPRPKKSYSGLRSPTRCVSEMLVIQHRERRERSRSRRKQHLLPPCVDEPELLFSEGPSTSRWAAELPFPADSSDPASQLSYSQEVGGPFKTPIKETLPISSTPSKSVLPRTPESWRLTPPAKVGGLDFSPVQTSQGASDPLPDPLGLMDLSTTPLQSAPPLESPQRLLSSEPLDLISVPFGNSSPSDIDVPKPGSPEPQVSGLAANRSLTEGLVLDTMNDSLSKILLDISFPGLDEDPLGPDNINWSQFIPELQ
# experimental.protocol: fluorescence polarization; EMSA and FP: 20 mM Tris-Cl, 50 mM KCl, 10% glycerol, 0.5 mM EDTA, 0.2 mM DTT, pH 7.6, 30 min on ice; EMSA 50 nM probe, FP 10 nM probe (50 nM in Fig. 1D legend)
# protocol.conditions: protein: recombinant; tags: C-terminal His6 (encoded by reverse primer S6); label: 5'-FAM on forward strand (hot) or none (cold); blunt
attribute.measured: Kd (nM)
Use nM as the unit, but write only the number.

Problem: For FOXM1 dsDNA probe (dsDNA) DNA 1: TTTGTTTATTTGTTTGTTTATTTG DNA 2: CAAATAAACAAACAAATAAACAAA , write its Kd.
Solution: 214
